Provenance of the data: patent US20200270216A1

assay: Pharmacokinetic / brain permeability study, LC-MS/MS of brain and plasma; type: in vivo, C57BL6 mice; settings: C57BL/6J, mouse, plasma, mice, 100 mg/kg oral gavage, read-out: level in plasma

smiles_data	output_unit	concentration at 4 h
O=c1[nH]c(=S)[nH]c(-c2ccccc2)c1Cc1c(O)ccc2ccccc12	ng/mL	8150

====

assay: Pharmacokinetic / brain permeability study, LC-MS/MS of brain and plasma; type: in vivo, C57BL6 mice; conditions: C57BL/6J, mouse, brain, mice, 100 mg/kg oral gavage, read-out: level in brain
observed_property: concentration at 4 h (ng/g)

compound	output_unit	experimental_result
O=c1[nH]c(=S)[nH]c(-c2ccccc2)c1Cc1c(O)ccc2ccccc12 [cambinol]	ng/g	135
